Field: DC50. Provide a value for each of the compounds that follow.
Biological target: BRG1 (Homo sapiens, UniProt P51532)
Construct: either BRM primary antibody (Cell signaling Cat #11966) or BRG primary antibody (Abcam, ab 110641); endogenous in cells; host or cells: SW1573
Sequence (P51532 whole entry): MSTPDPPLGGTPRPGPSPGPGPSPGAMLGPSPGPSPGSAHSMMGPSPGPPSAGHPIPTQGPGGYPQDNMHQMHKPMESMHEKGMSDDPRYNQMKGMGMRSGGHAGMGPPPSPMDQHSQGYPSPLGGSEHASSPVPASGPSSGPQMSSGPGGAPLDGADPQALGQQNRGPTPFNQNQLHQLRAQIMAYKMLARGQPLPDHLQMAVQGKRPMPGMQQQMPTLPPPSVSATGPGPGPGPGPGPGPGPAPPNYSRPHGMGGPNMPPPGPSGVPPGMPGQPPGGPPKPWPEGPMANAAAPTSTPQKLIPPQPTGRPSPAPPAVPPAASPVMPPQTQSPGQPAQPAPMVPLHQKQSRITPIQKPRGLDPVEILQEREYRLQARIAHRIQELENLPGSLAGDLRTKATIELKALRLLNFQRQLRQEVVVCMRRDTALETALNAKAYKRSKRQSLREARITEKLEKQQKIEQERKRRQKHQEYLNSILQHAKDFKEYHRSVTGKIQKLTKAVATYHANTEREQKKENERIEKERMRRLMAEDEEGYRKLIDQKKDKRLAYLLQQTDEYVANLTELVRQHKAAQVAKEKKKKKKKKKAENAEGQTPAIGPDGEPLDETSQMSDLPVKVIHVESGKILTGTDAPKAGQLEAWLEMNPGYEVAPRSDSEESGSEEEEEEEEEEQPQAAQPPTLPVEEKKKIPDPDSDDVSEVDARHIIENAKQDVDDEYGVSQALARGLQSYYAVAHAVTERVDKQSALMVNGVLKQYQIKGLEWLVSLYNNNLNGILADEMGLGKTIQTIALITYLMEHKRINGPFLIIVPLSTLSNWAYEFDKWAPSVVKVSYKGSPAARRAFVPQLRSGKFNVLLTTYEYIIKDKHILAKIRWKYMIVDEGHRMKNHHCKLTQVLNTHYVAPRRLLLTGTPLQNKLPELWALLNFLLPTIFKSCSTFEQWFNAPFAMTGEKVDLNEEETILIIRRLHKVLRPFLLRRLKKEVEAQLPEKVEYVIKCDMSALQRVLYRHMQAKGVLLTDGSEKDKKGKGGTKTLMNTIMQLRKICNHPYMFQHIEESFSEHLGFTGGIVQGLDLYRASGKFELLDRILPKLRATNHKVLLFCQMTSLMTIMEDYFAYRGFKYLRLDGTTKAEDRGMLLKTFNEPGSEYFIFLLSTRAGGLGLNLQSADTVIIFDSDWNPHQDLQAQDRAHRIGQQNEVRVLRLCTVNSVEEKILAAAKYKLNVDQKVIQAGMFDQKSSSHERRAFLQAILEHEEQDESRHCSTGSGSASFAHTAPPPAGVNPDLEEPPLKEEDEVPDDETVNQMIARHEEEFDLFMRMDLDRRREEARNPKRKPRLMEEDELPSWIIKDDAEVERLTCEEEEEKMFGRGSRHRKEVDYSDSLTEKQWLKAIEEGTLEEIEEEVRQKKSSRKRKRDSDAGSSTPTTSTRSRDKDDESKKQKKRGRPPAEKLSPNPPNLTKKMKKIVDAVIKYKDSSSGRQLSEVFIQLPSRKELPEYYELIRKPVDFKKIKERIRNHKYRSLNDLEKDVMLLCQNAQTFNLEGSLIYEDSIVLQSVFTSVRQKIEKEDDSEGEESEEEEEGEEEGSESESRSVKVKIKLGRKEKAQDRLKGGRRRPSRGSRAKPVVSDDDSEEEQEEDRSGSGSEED
Experiment: Immunofluorescence assay for BRG1 degradation in SW1573 cells
Type: cell-based
Conditions: 20 hours incubation, immunofluorescence mean nuclear signal, read-out: BRG1 IF Degradation IC50

Here are 2 compounds together with their reported answers.
Nc1nnc(-c2ccccc2O)cc1N1CC2CCC(C1)N2c1ccnc(C#CCN2C3CCC(C3)C2CO)c1 (stereo not shown) [Compound 103]: > 100 nM
Nc1nnc(-c2ccccc2O)cc1N1CC2CCC(C1)N2c1ccnc(C#CCN2CCC(N)C2)c1 (stereo not shown) [Compound 15]: > 100 nM

State the recorded DC50 for every item in the following list.
1. NCCCCCCC#Cc1cc(N2C3CCC2CN(c2cc(-c4ccccc4O)nnc2N)C3)ccn1 [Compound 11]
2. Nc1nnc(-c2ccccc2O)cc1N1CC2CCC(C1)N2c1ccnc(C#CCN2CC(O)(C3CC3)C2)c1 [Compound 154]

# output
1. 10 to 100 nM
2. < 10 nM

State the recorded DC50 for every item in the following list.
1. Nc1nnc(-c2ccccc2O)cc1N1CC2CCC(C1)N2c1ccnc(C#CCN2CCOC3(CC3)C2)c1 [Compound 124]
2. N#CCC1CN(CC#Cc2cc(N3C4CCC3CN(c3cc(-c5ccccc5O)nnc3N)C4)ccn2)C1 [Compound 152]
3. Nc1nnc(-c2ccccc2O)cc1N1CC2CCC(C1)N2c1ccnc(C#CCN2CCCC3(CC3)C2)c1 [Compound 99]

# output
1. > 100 nM
2. < 10 nM
3. < 10 nM
